# Test system: PC-3 cells
# Assay summary: Cell Proliferation Assay (Cell Titer Glo), PC-3 cell line
# Assay type: cell-based
# Conditions: Homo sapiens, PC-3, PC3 cells; read-out: CPEC50 PC3
Please go through the items and note down their EC50.

[
  {
    "Query smiles": "Cc1ccc(Nc2ncc3ccc(O)c(C4CCN(C(C)C)CC4)c3n2)cc1NS(C)(=O)=O",
    "EC50": "< 5 µM"
  }
]

Consider the following items and state reported EC50 for each.
1. CN1CCN(c2ccc(-c3cc(C(F)(F)F)cc4cnc(Nc5ccc(S(N)(=O)=O)cc5)nc34)cn2)CC1
2. COc1c(-c2cnn(C)c2)cc(Cl)c2cnc(Nc3ccc(N4CCOCC4)cc3)nc12
3. Cn1cnnc1-c1cccc(Nc2ncc3cccc(-c4ccc(NCCN5CCCC5)nc4)c3n2)c1
4. CC(C)N1CCC(Oc2cccc3cnc(Nc4cccc(N5CCOCC5)c4)nc23)CC1
5. CN(C)[C@@H]1CCN(c2ccc(-c3cccc4cnc(Nc5ccc(S(N)(=O)=O)cc5)nc34)cn2)C1
6. c1cc(-c2ccc(NCCN3CCCC3)nc2)c2nc(Nc3ccc(N4CCOCC4)cc3)ncc2c1
7. O=c1[nH]c2ccc(Nc3ncc4cccc(-c5ccc(NCCN6CCCC6)nc5)c4n3)cc2[nH]1
8. CC(=O)Nc1ccc(Nc2ncc3cccc(OC4CCN(C(C)C)CC4)c3n2)cc1

A.
1: < 5 µM; 2: < 5 µM; 3: < 5 µM; 4: 5 to 10 µM; 5: < 5 µM; 6: < 5 µM; 7: < 5 µM; 8: < 5 µM

Consider the following items and state reported EC50 for each.
1. C#Cc1cc2cnc(Nc3ccc(C(=O)N4CCOCC4)cc3)nc2cc1-c1ccc2c(c1)CCNC2=O
2. COc1c(-c2cnn(C)c2)cc(Cl)c2cnc(Nc3cc(CN(C)C)cc(NC(C)=O)c3)nc12
3. CN1CCC(NCc2cccc3cnc(Nc4ccc(S(N)(=O)=O)cc4)nc23)CC1
4. C#Cc1cc2cnc(Nc3ccc(C(=O)NC(C)C)cc3)nc2cc1-c1ccc2c(c1)CCNC2=O
5. OCCc1ccc(Nc2ncc3cccc(-c4ccc(NCCN5CCCC5)nc4)c3n2)cc1
6. CN(C)[C@H]1CCN(Cc2cccc3cnc(Nc4ccc(S(N)(=O)=O)cc4)nc23)C1
7. Fc1ccc(Nc2ncc3ccc(OC4CCNCC4)cc3n2)cc1

A.
["5 to 10 µM", "< 5 µM", "5 to 10 µM", "< 5 µM", "< 5 µM", "< 5 µM", "< 5 µM"]

* * *

# Target system: PDK1 kinase (Homo sapiens, UniProt O15530)
# Sequence (O15530 whole entry): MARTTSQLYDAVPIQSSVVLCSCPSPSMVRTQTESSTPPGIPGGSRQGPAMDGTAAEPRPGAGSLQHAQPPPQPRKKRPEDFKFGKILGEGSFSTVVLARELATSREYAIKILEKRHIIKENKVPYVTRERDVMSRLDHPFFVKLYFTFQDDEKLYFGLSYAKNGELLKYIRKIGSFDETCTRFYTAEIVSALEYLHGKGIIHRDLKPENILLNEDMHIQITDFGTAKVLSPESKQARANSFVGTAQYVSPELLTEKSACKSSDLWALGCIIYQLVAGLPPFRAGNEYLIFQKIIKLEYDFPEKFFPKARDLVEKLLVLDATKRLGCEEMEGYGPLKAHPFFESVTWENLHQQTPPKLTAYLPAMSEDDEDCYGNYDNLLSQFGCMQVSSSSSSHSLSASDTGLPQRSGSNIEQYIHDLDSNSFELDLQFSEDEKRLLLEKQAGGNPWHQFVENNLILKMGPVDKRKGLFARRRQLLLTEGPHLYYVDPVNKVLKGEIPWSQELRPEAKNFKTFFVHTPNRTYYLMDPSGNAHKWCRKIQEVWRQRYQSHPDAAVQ
# Assay summary: PDK1 Kinase Alpha Screen Assay
# Assay type: biochemical
# Conditions: read-out: PDK1 IC50
Please go through the items and note down their IC50.

Consider the following items and state reported IC50 for each.
1. CN1CCC(CNC(=O)c2cncc(-c3cccc4cnc(Nc5ccc(S(N)(=O)=O)cc5)nc34)c2)CC1
2. CN(C)[C@@H]1CCN(C(=O)c2cncc(-c3cccc4cnc(Nc5ccc(S(N)(=O)=O)cc5)nc34)c2)C1

A.
1. < 5 µM
2. < 5 µM

* * *

# Test system: pAkt308 (phosphorylation of Akt at T308) in PC-3 cells
# Assay summary: pAkt T308 ECL Assay in PC-3 cells
# Format: cell-based
# Conditions: Homo sapiens, 6 h, six hours with compound, read-out: PAKT308 PC3 IC50
pIC50: −log10 of the molar value.
Please go through the items and note down their pIC50.

Answered cases to consult:
[
  {
    "Molecule": "NS(=O)(=O)c1ccc(Nc2ncc3ccc(-c4cccnc4)cc3n2)cc1",
    "Measured result": "> 5.30"
  },
  {
    "Molecule": "Cn1cc(-c2ccc3cnc(Nc4ccc(S(N)(=O)=O)cc4)nc3c2)cn1",
    "Measured result": "> 5.30"
  },
  {
    "Molecule": "CNC(=O)c1ccc(Nc2ncc3cccc(OC4CCN(C(C)C)CC4)c3n2)cc1",
    "Measured result": "> 5.30"
  },
  {
    "Molecule": "O=S(=O)(NCCN1CCCC1)c1ccc(Nc2ncc3cccc(OC4CCNCC4)c3n2)cc1",
    "Measured result": "5.00 to 5.30"
  },
  {
    "Molecule": "CCN1CCC(Oc2cccc3cnc(Nc4ccc(S(N)(=O)=O)cc4)nc23)CC1",
    "Measured result": "5.00 to 5.30"
  }
]

Consider the following items and state reported pIC50 for each.
1. CC(=O)Nc1ccc(Nc2ncc3ccc(OC4CCNCC4)cc3n2)cc1C
2. NS(=O)(=O)c1ccc(Nc2ncc3ccc(-c4ccccc4)c(OC4CCNCC4)c3n2)cc1
3. O=S(=O)(c1cccc(Nc2ncc3cccc(OC4CCNCC4)c3n2)c1)N1CCOCC1
4. NS(=O)(=O)c1ccc(Nc2ncc3ccc(-c4cn[nH]c4)c(OC4CCNCC4)c3n2)cc1

A.
1. > 5.30
2. > 5.30
3. 5.00 to 5.30
4. 5.00 to 5.30

Consider the following items and state reported pIC50 for each.
1. CN1CCC(Oc2ccc3cnc(Nc4ccc(S(=O)(=O)N5CCOCC5)cc4)nc3c2)CC1
2. CC(=O)Nc1cccc(Nc2ncc3cccc(OC4CCN(C(C)C)CC4)c3n2)c1

A.
1: > 5.30; 2: > 5.30

Consider the following items and state reported pIC50 for each.
1. NS(=O)(=O)c1ccc(Nc2ncc3cc(Br)cc(OC4CN5CCC4CC5)c3n2)cc1 (centres unmarked)
2. CNC(=O)Cc1cccc(Nc2ncc3cccc(OC4CCN(C(C)C)CC4)c3n2)c1
3. CC(C)N1CCC(c2c(O)ccc3cnc(Nc4ccc(S(N)(=O)=O)cc4)nc23)CC1
4. CC(C)N1CCC(Oc2ccc3cnc(Nc4ccc(S(N)(=O)=O)cc4)nc3c2)CC1
5. NS(=O)(=O)c1ccc(Nc2ncc3ccc(OC4CCNCC4)cc3n2)cc1
6. NS(=O)(=O)c1ccc(Nc2ncc3ccc(-c4ccccn4)c(OC4CCNCC4)c3n2)cc1

A.
["> 5.30", "> 5.30", "> 5.30", "> 5.30", "> 5.30", "5.00 to 5.30"]

* * *

Please go through the items and note down their EC50.
# Tested on: A2780 cells
# Assay summary: Cell Proliferation Assay (Cell Titer Glo), A2780
# Format: cell-based
# Conditions: Homo sapiens; Cell Proliferation Assay, A2780; read-out: CPEC50 A2780

Answered cases to consult:
[
  {
    "Query smiles": "CC(C)Oc1cccc2cnc(Nc3ccccn3)nc12",
    "Measured result": "5 to 10 µM"
  },
  {
    "Query smiles": "COc1ccc(Oc2cccc3cnc(Nc4ccc(S(N)(=O)=O)cc4)nc23)cc1",
    "Measured result": "< 5 µM"
  }
]

Consider the following items and state reported EC50 for each.
1. NS(=O)(=O)c1ccc(Nc2ncc3ccc(OCC4CCNCC4)cc3n2)cc1
2. NS(=O)(=O)c1ccc(Nc2ncc3cccc(C(=O)NCc4ccccn4)c3n2)cc1
3. Cn1cc(-c2ccc3cnc(Nc4ccc(S(=O)(=O)N5CCOCC5)cc4)nc3c2)cn1
4. CNC(=O)c1ccc2cnc(Nc3ccc(S(N)(=O)=O)cc3)nc2c1
5. CN(C)CCOc1ccc2cnc(Nc3ccc(S(N)(=O)=O)cc3)nc2c1

A.
1: < 5 µM; 2: 5 to 10 µM; 3: < 5 µM; 4: < 5 µM; 5: 5 to 10 µM

Consider the following items and state reported EC50 for each.
1. CC(C)Oc1cccc2cnc(Nc3ccc(NC(=O)CN(C)C)cc3)nc12
2. CC(=O)NS(=O)(=O)c1ccc(Nc2ncc3cccc(OC(C)C)c3n2)cc1
3. NS(=O)(=O)c1ccc(Nc2ncc3ccc(OCCC4CCNCC4)cc3n2)cc1

A.
1. < 5 µM
2. 5 to 10 µM
3. < 5 µM

Consider the following items and state reported EC50 for each.
1. Cc1cc2cnc(Nc3ccc(N4CCOCC4)cc3)nc2cc1OC1CCNCC1
2. COc1cc(-c2ccc3cnc(Nc4ccc(S(N)(=O)=O)cc4)nc3c2)ccn1
3. NS(=O)(=O)c1ccc(Nc2ncc3cccc(OCC4CCNCC4)c3n2)cc1
4. COc1cccc(Oc2ccc3cnc(Nc4ccc(S(N)(=O)=O)cc4)nc3c2)c1
5. CC(C)Oc1cccc2cnc(NCc3ccc(S(N)(=O)=O)cc3)nc12

A.
1: < 5 µM; 2: 5 to 10 µM; 3: < 5 µM; 4: < 5 µM; 5: 5 to 10 µM

* * *

# Test system: pAkt308 (phosphorylation of Akt at T308) in PC-3 cells
# Assay summary: pAkt T308 ECL Assay in PC-3 cells
# Format: cell-based
# Conditions: Homo sapiens, 6 h, six hours with compound, read-out: PAKT308 PC3 IC50
pIC50: −log10 of the molar value.
Result type: pIC50

Answered cases to consult:
[
  {
    "Query smiles": "COc1cc(Nc2ncc3ccc(OC4CCNCC4)cc3n2)cc(OC)c1",
    "pIC50": "> 5.30"
  },
  {
    "Query smiles": "CC(C)NC(=O)Cc1ccc(Nc2ncc3cccc(OC4CCN(C(C)C)CC4)c3n2)cc1",
    "pIC50": "5.00 to 5.30"
  },
  {
    "Query smiles": "COCCNS(=O)(=O)c1ccc(Nc2ncc3cccc(OC4CCNCC4)c3n2)cc1",
    "pIC50": "> 5.30"
  },
  {
    "Query smiles": "NS(=O)(=O)c1ccc(Nc2ncc3cccc(O[C@@H]4CN5CCC4CC5)c3n2)cc1",
    "pIC50": "> 5.30"
  },
  {
    "Query smiles": "CC(C)NC(=O)c1ccc(Nc2ncc3cccc(OC4CCN(C(C)C)CC4)c3n2)cc1",
    "pIC50": "> 5.30"
  }
]

Consider the following items and state reported pIC50 for each.
1. NS(=O)(=O)c1ccc(Nc2ncc3ccc(-c4nccs4)c(OC4CCNCC4)c3n2)cc1
2. CNC(=O)Cc1ccc(Nc2ncc3cccc(OC4CCN(C(C)C)CC4)c3n2)cc1

A.
["> 5.30", "4.60 to 5.00"]

Q. Form field: reported pIC50 of "COc1cncc(-c2ccc3cnc(Nc4ccc(S(N)(=O)=O)cc4)nc3c2)c1"
A. 5.00 to 5.30
